Provenance of the data: patent US4474800A

measuredOn: CANP prepared from a muscle of hereditary muscular dystrophy chicken (Gallus gallus)
Construct: from tissue; host or cells: muscle of hereditary muscular dystrophy chicken
Sequence (P00789 1-705): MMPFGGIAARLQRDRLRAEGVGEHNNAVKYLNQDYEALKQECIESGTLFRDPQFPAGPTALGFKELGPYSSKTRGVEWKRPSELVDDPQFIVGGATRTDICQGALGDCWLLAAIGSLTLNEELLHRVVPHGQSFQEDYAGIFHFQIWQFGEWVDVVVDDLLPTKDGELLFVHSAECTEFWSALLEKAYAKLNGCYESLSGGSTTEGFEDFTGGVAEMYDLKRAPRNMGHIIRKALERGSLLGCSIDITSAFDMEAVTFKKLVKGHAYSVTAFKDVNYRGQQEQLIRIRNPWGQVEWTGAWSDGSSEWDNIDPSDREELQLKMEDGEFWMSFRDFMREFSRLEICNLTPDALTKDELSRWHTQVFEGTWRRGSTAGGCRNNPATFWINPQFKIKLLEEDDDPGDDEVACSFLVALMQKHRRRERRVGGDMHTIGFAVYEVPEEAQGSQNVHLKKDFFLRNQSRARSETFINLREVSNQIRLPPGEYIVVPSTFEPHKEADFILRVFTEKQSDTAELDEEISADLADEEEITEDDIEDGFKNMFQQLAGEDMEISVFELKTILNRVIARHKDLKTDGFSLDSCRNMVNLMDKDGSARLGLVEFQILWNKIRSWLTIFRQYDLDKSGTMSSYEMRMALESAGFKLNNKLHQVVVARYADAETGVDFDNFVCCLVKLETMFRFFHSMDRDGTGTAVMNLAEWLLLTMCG
experimentalProtocol: CANP inhibitory activity (method of Ishiura et al.)
Format: biochemical
conditionDetails: 50% inhibition in molar ratio to the enzyme
Listed compounds paired with reported CANP Inhibitory Activity ID50 (mole/mole)
quantityMeasured: CANP Inhibitory Activity ID50 (mole/mole)

# compound, measuredResult
measured = [
    ("CCOC(=O)[C@H]1O[C@@H]1C(=O)O (relative stereo) [A, Ethyl hydrogen epoxysuccinate, reference compound]", "5,400 mole/mole"),
    ("CC(=O)NCCCCNC(=O)[C@H](CC(C)C)NC(=O)C1OC1C(=O)OCc1ccccc1 (mixture of isomers)", "100 mole/mole"),
    ("CC[C@H](C)[C@H](NC(=O)C1OC1C(=O)OCc1ccccc1)C(=O)NCCCCNC(=O)OCc1ccccc1 (mixture of isomers)", "92 mole/mole"),
    ("CC(C)C[C@H](NC(=O)C1OC1C(=O)OCc1ccccc1)C(=O)NCCCCNC(=O)OCc1ccccc1 (mixture of isomers)", "78 mole/mole"),
    ("CC(C)C[C@H](NC(=O)C1OC1C(=O)O)C(=O)O (stereo partly shown) [E, reference compound]", "4,600 mole/mole"),
    ("CC(C)C[C@H](NC(=O)C1OC1C(=O)OCc1ccccc1)C(=O)NCCCCNC(=O)c1ccccc1 (mixture of isomers)", "89 mole/mole"),
    ("CC(C)C[C@H](NC(=O)C1OC1C(=O)O)C(=O)NCCCCNC(=O)OCc1ccccc1 (mixture of isomers)", "19 mole/mole"),
    ("CC(C)C[C@H](NC(=O)C1OC1C(=O)O)C(=O)NCCCCN (mixture of isomers)", "55 mole/mole"),
    ("CC(C)[C@H](NC(=O)C1OC1C(=O)OCc1ccccc1)C(=O)NCCCCNC(=O)OCc1ccccc1 (mixture of isomers)", "113 mole/mole"),
    ("O=C(O)[C@H]1O[C@@H]1C(=O)OCc1ccccc1 (relative stereo) [B, Benzyl hydrogen epoxysuccinate, reference compound]", "410 mole/mole"),
    ("CCOC(=O)C1OC1C(=O)N[C@@H](CC(C)C)C(=O)OCc1ccccc1 (stereo partly shown) [C, reference compound]", "580 mole/mole"),
    ("CC(C)C[C@H](NC(=O)C1OC1C(=O)OC1CCCCC1)C(=O)NCCCCNC(=O)OCc1ccccc1 (mixture of isomers)", "75 mole/mole"),
    ("CC(C)C[C@H](NC(=O)C1OC1C(=O)OCc1ccccc1)C(=O)NCCCCCNC(=O)OCc1ccccc1 (mixture of isomers)", "121 mole/mole"),
]
